Source of measurements: paper PMC10447463

Format: physicochemical
APPLIED CONDITIONS: FigS12 panel A
OUTCOME MEASURE: Tht category (> 2 to blank = +)

# SUBSTANCE, OUTCOME MEASURE, RESULT
data = [
    ("HRRHFRHKITKKK", "Tht category (> 2 to blank = +)", "0 (ThT-inactive (N-Fold <2))"),
    ("HHHHKAKAKAKAWWWW", "Tht category (> 2 to blank = +)", "1 (ThT. Cat is 1, if Rel. ThT >2)"),
    ("KIKIQIRGD", "Tht category (> 2 to blank = +)", "1 (ThT. Cat is 1, if Rel. ThT >2)"),
    ("RGDKIRGDKI", "Tht category (> 2 to blank = +)", "0 (ThT-inactive (N-Fold <2))"),
    ("KNDKND", "Tht category (> 2 to blank = +)", "0 (ThT-inactive (N-Fold <2))"),
    ("KAKAQA", "Tht category (> 2 to blank = +)", "0 (ThT-inactive (N-Fold <2))"),
    ("KIKIQINMWQRGD", "Tht category (> 2 to blank = +)", "0 (ThT-inactive (N-Fold <2))"),
    ("NMWQKIKQII", "Tht category (> 2 to blank = +)", "0 (ThT-inactive (N-Fold <2))"),
]

---

Tested on: HIV-1 infection of TZM-bl cells
PROTOCOL: HIV-1 infectivity enhancement assay, β-galactosidase luminescence
Type: cell-based
APPLIED CONDITIONS: Log10 of infection relative to EF-C; all peptides of FigS16
Classification field: enter yes (1) for Log10 of Rel to EFC (Feb2021) values not below -0.5, no (0) for values below it.

# SUBSTANCE, LABEL
rows = [
    ("KIKIQIMQWN", "yes (1)"),
    ("KIKQIINMWQ", "yes (1)"),
    ("KIKIQIN", "no (0)"),
    ("KIKIQINMWWQ", "yes (1)"),
]

---

PROTOCOL: Zeta-potential measurement
Assay type: physicochemical
Kindly return 1 if reported Zeta-Pot. is no lower than 10; return 0 if it is lower.

# SUBSTANCE, LABEL
rows = [
    ("QCKIKQIINMWQ [reference compound]", 0),
    ("CKAKAQANMWQ", 0),
    ("CKIKIQIII", 1),
    ("RGEKIKIQINM", 1),
    ("HGDKCHGDKC", 0),
    ("NMWQKVGTPL", 0),
    ("QCKFKQFFNMWQ", 0),
    ("FKFDKFKFDK", 0),
    ("KIKIKIQINMWQ", 1),
    ("HHHHKAKAKAKAWWWW", 1),
    ("CKIKQIINM", 1),
    ("TKTLTKTL", 0),
    ("KIRGKFEKED", 0),
    ("QCKAKAQA", 0),
    ("KIKIQIMWNQ", 0),
    ("EIKIQINM", 0),
    ("QCKFKFQFNM", 1),
    ("CKIKIQINMW", 1),
    ("CEIEIQI", 0),
    ("CKFKQFFNMWQ", 0),
    ("KIKQIINMWQ", 1),
    ("FDPFDPFDP", 0),
    ("CKFKQFF", 1),
    ("QCKAKAQANMWQ", 0),
    ("SISISRRI", 0),
    ("HLHLPLL", 0),
    ("KNDKND", 0),
    ("QCKFKQFF", 0),
    ("HGEHGEHGE", 0),
    ("CKFKFQFNM", 1),
    ("MDQMDQMDQMDQMDQ", 0),
    ("CKFKQFFNM", 1),
    ("KVKGVGK", 0),
    ("KFKFQFNMW", 1),
    ("HGEHGE", 0),
    ("QCKFKFQF", 1),
    ("QCKIKQIINM", 1),
    ("KAKQAANMWQ", 0),
    ("QCKFKQFFNM", 1),
    ("QCKFKFQFNMWQ", 1),
    ("KIKIQINMWQRGD", 0),
    ("KIKIQIW", 1),
    ("EIEIQINMWQ", 0),
    ("RLRLTLC", 1),
    ("CETMYDKILKNLSRSR", 0),
    ("KFKFQFW", 0),
    ("CKFKFQF", 1),
    ("RGECKFKFQF", 1),
    ("KFKFQFNMWQ", 1),
    ("CKFKFQFW", 1),
    ("QCKAKAQANM", 0),
    ("ILKNLSRSRKIKIQINMWQ", 1),
    ("QCKIKIQINMWQ", 1),
    ("KAKAQANMWQ", 0),
    ("KIKIQINMWWWQ", 0),
    ("CRFRFQF", 0),
    ("CHLHLQL", 0),
    ("KIKIQIMQWN", 0),
    ("KYKGAIIGNIK", 0),
    ("IKVAVKIKIQINM", 1),
    ("KIKIQINMWWQ", 1),
    ("QCKIKIQI", 0),
    ("EIEIQINM", 0),
    ("CKAKAQANM", 0),
    ("NMWQKAKAQA", 0),
]
